# subject-of-test: HDAC2 (Homo sapiens (Human), UniProt Q92769)
# Sequence (Q92769 whole entry): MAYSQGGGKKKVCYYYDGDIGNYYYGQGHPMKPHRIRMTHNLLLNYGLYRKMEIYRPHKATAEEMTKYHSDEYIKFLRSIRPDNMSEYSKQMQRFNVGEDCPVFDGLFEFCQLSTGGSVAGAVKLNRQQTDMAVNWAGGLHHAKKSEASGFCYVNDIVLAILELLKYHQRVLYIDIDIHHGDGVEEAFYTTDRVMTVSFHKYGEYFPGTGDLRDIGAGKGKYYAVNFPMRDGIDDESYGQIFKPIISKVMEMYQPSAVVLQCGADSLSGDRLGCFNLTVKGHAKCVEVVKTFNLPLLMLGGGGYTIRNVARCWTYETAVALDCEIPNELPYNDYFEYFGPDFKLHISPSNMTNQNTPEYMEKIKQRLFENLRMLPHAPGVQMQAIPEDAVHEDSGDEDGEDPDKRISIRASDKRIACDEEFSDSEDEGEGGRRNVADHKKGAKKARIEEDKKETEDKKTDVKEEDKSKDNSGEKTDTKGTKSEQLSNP
# assay-details: HDAC activity inhibition assay, HDAC2
# Format: biochemical
# condition-info: Table 4
pIC50: −log10 of the molar value.
Attribute: pIC50
endpoint-label: pIC50

>>> experimental_value("Nc1cc(F)ccc1NC(=O)c1ccc(C=C2CN(CC3CC3)C2)cc1 [F20]")
"5.30 to 6.00"
>>> experimental_value("CC(C)(O)CN1CCC(=Cc2ccc(C(=O)Nc3ccccc3N)cc2)CC1 [F15]")
"> 6.00"
>>> experimental_value("Nc1ccccc1NC(=O)c1ccc(C=C2CN(CC3CC3)C2)cc1 [F12]")
"> 6.00"
>>> experimental_value("Nc1ccccc1NC(=O)c1ccc(C=C2CCN(CC3CC3)CC2)cc1 [F13]")
"> 6.00"
>>> experimental_value("CC(C)(C)CN1CCC(=Cc2ccc(C(=O)Nc3ccccc3N)cc2)CC1 [F14]")
"> 6.00"

====

# subject-of-test: HDAC2 (Homo sapiens (Human))
# assay-details: HDAC activity inhibition assay, HDAC2
# Format: biochemical
# condition-info: Table 1; 2 hours pre-incubation
pIC50: −log10 of the molar value.
Attribute: pIC50
endpoint-label: pIC50

>>> experimental_value("Nc1ccccc1NC(=O)/C=C/c1cn2ccccc2n1")
"5.30 to 6.00"
>>> experimental_value("Nc1ccccc1NC(=O)/C=C/c1cnn(CCOc2ccc(F)cc2)c1")
"> 6.00"
>>> experimental_value("Nc1ccccc1NC(=O)/C=C/c1cnn(CCCCc2ccccc2)c1")
"> 6.00"
>>> experimental_value("Cc1cccc(Cn2cc(/C=C/C(=O)Nc3ccccc3N)cn2)n1")
"5.30 to 6.00"
>>> experimental_value("Nc1ccccc1NC(=O)c1ccc(C=C2CCN(C(=O)OCc3ccccc3)CC2)cc1")
"5.30 to 6.00"
>>> experimental_value("Cc1nc(/C=C/C(=O)Nc2ccccc2N)cs1")
"5.00 to 5.30"
>>> experimental_value("Cc1nc(/C=C/C(=O)Nc2ccccc2N)co1")
"< 4.70"
>>> experimental_value("Nc1ccccc1NC(=O)/C=C/c1cnn(CC2CC2)c1")
"5.00 to 5.30"
>>> experimental_value("Nc1ccccc1NC(=O)/C=C/c1cnn(CCCOc2ccccc2)c1")
"> 6.00"
>>> experimental_value("CCOCc1cn2cc(/C=C/C(=O)Nc3ccccc3N)sc2n1 [E1]")
"5.00 to 5.30"
>>> experimental_value("CCn1cc(/C=C/C(=O)Nc2ccccc2N)cn1")
"5.30 to 6.00"

====

# System: Human Hepatocytes
# assay-details: Compound stability in hepatocytes
# condition-info: 5 μM
endpoint-label: % left 6 h Hum

>>> experimental_value("Nc1ccccc1NC(=O)c1ccc(C=C2CN(CC3CC3)C2)cc1")
"A (50%<A)"
>>> experimental_value("Nc1ccccc1NC(=O)c1ccc(C=C2CN(Cc3ccccc3)C2)cc1")
"C (30%>C>10%)"
>>> experimental_value("CC(C)(O)CN1CC(=Cc2ccc(C(=O)Nc3ccccc3N)cc2)C1")
"A (50%<A)"
>>> experimental_value("Nc1ccccc1NC(=O)c1ccc(C=C2CN(Cc3cccnc3)C2)cc1")
"C (30%>C>10%)"
>>> experimental_value("Nc1cc(F)ccc1NC(=O)c1ccc(C=C2CN(CC3CC3)C2)cc1")
"A (50%<A)"
>>> experimental_value("CC(C)(O)CN1CCC(=Cc2ccc(C(=O)Nc3ccccc3N)cc2)CC1")
"A (50%<A)"
>>> experimental_value("Nc1ccccc1NC(=O)c1ccc(C=C2COC2)c(Cl)c1")
"C (30%>C>10%)"
>>> experimental_value("Cc1cccc(CN2CC(=Cc3ccc(C(=O)Nc4ccccc4N)cc3)C2)n1")
"C (30%>C>10%)"

====

# subject-of-test: HDAC2 (Homo sapiens (Human), UniProt Q92769)
# assay-details: HDAC activity inhibition assay, HDAC2
# Assay type: biochemical
# condition-info: Table 4
endpoint-label: IC50

>>> experimental_value("CN1C2CCC1CC(=Cc1ccc(C(=O)Nc3ccccc3N)cc1Cl)C2")
"< 1000 nM"
>>> experimental_value("CC(C)(O)CN1CC(=Cc2ccc(C(=O)Nc3ccccc3N)cc2)C1")
"1000 to 5000 nM"
>>> experimental_value("Nc1ccccc1NC(=O)c1ccc(C=C2CN(Cc3ccccc3)C2)cc1")
"< 1000 nM"
>>> experimental_value("Cc1cccc(CN2CC(=Cc3ccc(C(=O)Nc4ccccc4N)cc3)C2)n1")
"< 1000 nM"
>>> experimental_value("Nc1ccccc1NC(=O)c1ccc(C=C2CN(Cc3cccnc3)C2)cc1")
"< 1000 nM"
>>> experimental_value("Nc1ccccc1NC(=O)c1ccc(C=C2CCN(Cc3cccnc3)CC2)c(Cl)c1")
"< 1000 nM"

====

Attribute: IC50
# subject-of-test: UniProtKB Q92769
# assay-details: HDAC activity inhibition assay, HDAC2
# Assay type: biochemical
endpoint-label: IC50

>>> experimental_value("Cn1cc(/C=C/C(=O)Nc2cc(F)ccc2N)cn1 [C3]")
"1 to 5 µM"
>>> experimental_value("Cn1cc(/C=C/C(=O)Nc2ccc(F)cc2N)cn1 [C2]")
"> 20 µM"

====

Attribute: IC50
# subject-of-test: HDAC1 (Homo sapiens (Human), UniProt Q13547)
# Sequence (Q13547 whole entry): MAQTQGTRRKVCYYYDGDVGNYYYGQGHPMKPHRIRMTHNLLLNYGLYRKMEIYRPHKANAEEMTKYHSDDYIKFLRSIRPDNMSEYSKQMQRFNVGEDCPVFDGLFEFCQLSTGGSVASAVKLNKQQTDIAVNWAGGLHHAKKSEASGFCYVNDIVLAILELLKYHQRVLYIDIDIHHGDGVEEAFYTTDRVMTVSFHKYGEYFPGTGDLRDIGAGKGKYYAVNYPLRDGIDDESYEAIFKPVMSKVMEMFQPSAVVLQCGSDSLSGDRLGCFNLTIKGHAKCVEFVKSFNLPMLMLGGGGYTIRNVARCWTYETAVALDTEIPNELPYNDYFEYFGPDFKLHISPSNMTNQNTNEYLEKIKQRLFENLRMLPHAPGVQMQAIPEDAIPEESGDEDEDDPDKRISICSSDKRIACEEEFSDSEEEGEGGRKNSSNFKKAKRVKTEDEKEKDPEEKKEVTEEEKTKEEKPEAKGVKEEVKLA
# assay-details: HDAC activity inhibition assay, HDAC1
# Assay type: biochemical
# condition-info: Table 1; 2 hours pre-incubation
endpoint-label: IC50

>>> experimental_value("Nc1ccccc1NC(=O)/C=C/c1cnn(CCOc2cc(F)cc(F)c2)c1 [B3]")
"< 1000 nM"
>>> experimental_value("Nc1ccccc1NC(=O)/C=C/c1cnn(CC/C=C/c2ccccc2)c1 [D11]")
"< 1000 nM"
>>> experimental_value("Nc1ccccc1NC(=O)c1ccc(C=C2CN(Cc3ccc4cc[nH]c4c3)C2)c(Cl)c1 [F5]")
"< 1000 nM"
>>> experimental_value("Nc1ccccc1NC(=O)/C=C/c1cn2ccnc2s1 [A10]")
"1000 to 5000 nM"
>>> experimental_value("Cc1nc(/C=C/C(=O)Nc2ccccc2N)cs1 [A1]")
"1000 to 5000 nM"
>>> experimental_value("Cn1ccc(/C=C/C(=O)Nc2ccccc2N)n1 [A7]")
"1000 to 5000 nM"
>>> experimental_value("Nc1ccccc1NC(=O)/C=C/c1cnn(CCOc2ccccc2)c1 [D3]")
"< 1000 nM"
>>> experimental_value("Nc1ccccc1NC(=O)/C=C/c1cnn(CCOc2ccc(C(F)(F)F)cc2)c1 [B4]")
"< 1000 nM"
>>> experimental_value("Nc1ccccc1NC(=O)/C=C/c1csc(C/C=C/c2ccccc2)n1 [E2]")
"< 1000 nM"
>>> experimental_value("Nc1ccccc1NC(=O)c1ccc(CC2CN(Cc3ccc4cc[nH]c4c3)C2)cc1 [F4]")
"< 1000 nM"
>>> experimental_value("Cc1cc(/C=C/C(=O)Nc2ccccc2N)on1 [A5]")
"10000 to 20000 nM"
>>> experimental_value("Nc1cc(F)ccc1NC(=O)/C=C/c1cnn(CCOc2ccccc2)c1 [D16]")
"1000 to 5000 nM"
>>> experimental_value("Cc1nn(C/C=C/c2ccccc2)c(C)c1/C=C/C(=O)Nc1ccccc1N [G2]")
"1000 to 5000 nM"
>>> experimental_value("Nc1ccccc1NC(=O)/C=C/c1cnn(CCc2c[nH]c3ccccc23)c1 [D13]")
"< 1000 nM"
>>> experimental_value("Nc1ccccc1NC(=O)/C=C/c1cnn(Cc2ccc(F)cc2)c1 [D5]")
"< 1000 nM"
>>> experimental_value("CN1CCC(Cn2cc(/C=C/C(=O)Nc3ccccc3N)cn2)CC1 [G1]")
"1000 to 5000 nM"
>>> experimental_value("Cc1cccc(Cn2cc(/C=C/C(=O)Nc3ccccc3N)cn2)n1 [D6]")
"1000 to 5000 nM"
>>> experimental_value("Cn1cc(/C=C/C(=O)Nc2ccccc2N)cn1 [A2]")
"5000 to 10000 nM"
>>> experimental_value("Nc1ccccc1NC(=O)c1ccc(C=C2CCN(Cc3cccnc3)CC2)c(Cl)c1 [F7]")
"< 1000 nM"
>>> experimental_value("CCOCc1cn2cc(/C=C/C(=O)Nc3ccccc3N)sc2n1 [E1]")
"1000 to 5000 nM"
>>> experimental_value("Nc1ccccc1NC(=O)/C=C/c1cn2ccccc2n1 [A9]")
"1000 to 5000 nM"
>>> experimental_value("Nc1ccccc1NC(=O)/C=C/c1cnn(CCOCc2ccccc2)c1 [D14]")
"< 1000 nM"
>>> experimental_value("Cc1ncc(/C=C/C(=O)Nc2ccccc2N)s1 [A3]")
"5000 to 10000 nM"
>>> experimental_value("Nc1ccccc1NC(=O)c1ccc(C=C2CN(Cc3ccc4cc[nH]c4c3)C2)cc1 [F3]")
"< 1000 nM"
>>> experimental_value("Nc1ccccc1NC(=O)/C=C/c1cnn(CCCOc2ccccc2)c1 [D15]")
"< 1000 nM"
>>> experimental_value("Nc1ccccc1NC(=O)c1ccc(C=C2CCN(Cc3cccnc3)CC2)cc1 [F2]")
"< 1000 nM"
>>> experimental_value("Nc1ccccc1NC(=O)c1ccc(C=C2CCN(C(=O)OCc3ccccc3)CC2)cc1 [F1]")
"< 1000 nM"
>>> experimental_value("Cn1cnc(/C=C/C(=O)Nc2ccccc2N)c1 [A12]")
"1000 to 5000 nM"
>>> experimental_value("Nc1ccccc1NC(=O)/C=C/c1cnc2ccccn12 [A6]")
"5000 to 10000 nM"
>>> experimental_value("Nc1ccccc1NC(=O)/C=C/c1cnn(CCc2ccccc2)c1 [D7]")
"< 1000 nM"
>>> experimental_value("Nc1ccccc1NC(=O)/C=C/c1cnn(CC2CC2)c1 [B1]")
"1000 to 5000 nM"
>>> experimental_value("Nc1ccccc1NC(=O)/C=C/c1cnn(CC(F)(F)c2ccccc2)c1 [D10]")
"< 1000 nM"
>>> experimental_value("Nc1ccccc1NC(=O)/C=C/c1cnn(CCOc2cc(F)cc(Cl)c2)c1 [B5]")
"< 1000 nM"
>>> experimental_value("Nc1ccccc1NC(=O)/C=C/c1cnn(-c2ccccc2)c1 [A11]")
"1000 to 5000 nM"
>>> experimental_value("Nc1ccccc1NC(=O)/C=C/c1cnn(CCOc2ccc(F)cc2)c1 [B6]")
"< 1000 nM"
>>> experimental_value("Cc1nc(/C=C/C(=O)Nc2ccccc2N)co1 [A4]")
"> 20000 nM"
>>> experimental_value("Nc1ccccc1NC(=O)/C=C/c1cnn(Cc2ccccc2)c1 [D4]")
"< 1000 nM"
>>> experimental_value("Nc1ccccc1NC(=O)/C=C/c1cnn(C/C=C/c2ccc(F)cc2)c1 [B2]")
"< 1000 nM"
>>> experimental_value("Nc1ccccc1NC(=O)/C=C/c1cc2ccccn2n1 [A8]")
"< 1000 nM"
>>> experimental_value("CCn1cc(/C=C/C(=O)Nc2ccccc2N)cn1 [C1]")
"1000 to 5000 nM"
>>> experimental_value("Nc1ccccc1NC(=O)/C=C/c1cnn(CCCc2ccccc2)c1 [D8]")
"< 1000 nM"
>>> experimental_value("Nc1ccccc1NC(=O)/C=C/c1cnn(CCCCc2ccccc2)c1 [D9]")
"< 1000 nM"
